molecular target: EGFR (L858R) (Homo sapiens, UniProt P00533, L858R); assay: HotSpot 10-dose dose-response kinase assay: EGFR; conditions: read-out: Dose-response IC50 EGFR (L858R); 10-dose dose-response, 1 μM ATP
Sequence (P00533 25-1210 L858R): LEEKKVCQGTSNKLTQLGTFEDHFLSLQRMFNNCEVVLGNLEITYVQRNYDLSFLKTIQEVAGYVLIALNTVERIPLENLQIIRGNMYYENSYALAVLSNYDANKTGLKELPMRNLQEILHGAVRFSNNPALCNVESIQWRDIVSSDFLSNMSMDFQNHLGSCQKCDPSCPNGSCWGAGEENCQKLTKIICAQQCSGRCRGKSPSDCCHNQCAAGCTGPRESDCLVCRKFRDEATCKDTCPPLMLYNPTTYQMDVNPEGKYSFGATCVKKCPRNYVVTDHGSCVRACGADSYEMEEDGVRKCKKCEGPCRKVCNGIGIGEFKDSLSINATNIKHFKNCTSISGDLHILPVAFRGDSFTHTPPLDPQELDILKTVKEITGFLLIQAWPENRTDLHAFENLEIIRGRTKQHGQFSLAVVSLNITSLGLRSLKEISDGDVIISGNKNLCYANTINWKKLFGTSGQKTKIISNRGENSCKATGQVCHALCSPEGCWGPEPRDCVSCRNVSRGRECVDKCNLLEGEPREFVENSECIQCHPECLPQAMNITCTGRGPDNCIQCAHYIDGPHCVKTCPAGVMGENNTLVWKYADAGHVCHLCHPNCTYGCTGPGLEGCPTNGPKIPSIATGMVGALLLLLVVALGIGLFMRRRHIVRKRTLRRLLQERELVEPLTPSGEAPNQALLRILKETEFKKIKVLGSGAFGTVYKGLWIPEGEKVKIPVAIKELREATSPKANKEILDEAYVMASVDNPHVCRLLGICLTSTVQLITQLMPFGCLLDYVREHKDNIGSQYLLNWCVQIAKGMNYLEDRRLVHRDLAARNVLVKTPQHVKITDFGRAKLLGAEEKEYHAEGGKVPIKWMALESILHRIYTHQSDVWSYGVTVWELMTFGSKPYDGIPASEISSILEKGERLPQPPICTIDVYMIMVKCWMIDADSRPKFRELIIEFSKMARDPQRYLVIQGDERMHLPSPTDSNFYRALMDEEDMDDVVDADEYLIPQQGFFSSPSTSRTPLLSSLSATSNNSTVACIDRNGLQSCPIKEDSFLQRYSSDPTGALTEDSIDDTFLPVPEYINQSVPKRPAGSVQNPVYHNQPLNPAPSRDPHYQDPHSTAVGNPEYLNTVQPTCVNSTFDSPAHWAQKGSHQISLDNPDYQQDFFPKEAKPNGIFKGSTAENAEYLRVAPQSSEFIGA
measurement-name: IC50 (nM)
Please reply with the bare figure in nM and do not write the unit itself.

Q) State its IC50 for this compound: Nc1ncnc2c1ncn2[C@@H]1O[C@H](COP(=O)(O)OP(=O)(O)C(Cl)(Cl)P(=O)(O)O)[C@@H](O)[C@H]1O
A) 490

###

measurement-name: IC50 (nM)
Reply with just the number (in nM).

Q) Provide IC50, system PDGFRa (Homo sapiens), entry Nc1ncnc2c1ncn2[C@@H]1O[C@H](COP(=O)(O)OP(=O)(O)C(Cl)(Cl)P(=O)(O)O)[C@@H](O)[C@H]1O
A) 4

###

target: EGFR (Homo sapiens, UniProt P00533)
Sequence (P00533 712-979 limits assumed): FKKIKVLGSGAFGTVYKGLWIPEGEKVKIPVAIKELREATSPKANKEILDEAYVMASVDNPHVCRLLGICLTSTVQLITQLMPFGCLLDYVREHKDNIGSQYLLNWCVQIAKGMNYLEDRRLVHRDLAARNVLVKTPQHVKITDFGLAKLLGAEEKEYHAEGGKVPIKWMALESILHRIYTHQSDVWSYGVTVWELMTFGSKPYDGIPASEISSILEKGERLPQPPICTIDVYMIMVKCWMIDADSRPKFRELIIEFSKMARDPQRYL
measurement-name: pIC50
Lab note: report pIC50 as minus log10 of the concentration in molar units, number only.

Q) Given the molecule O=P(O)(O)C(O)(Cn1ccnc1)P(=O)(O)O [compound 6, zoledronate] , write its reported pIC50.
A) 4.14

###

Target: DDR2 (Homo sapiens)
Sequence (Q16832 22-855): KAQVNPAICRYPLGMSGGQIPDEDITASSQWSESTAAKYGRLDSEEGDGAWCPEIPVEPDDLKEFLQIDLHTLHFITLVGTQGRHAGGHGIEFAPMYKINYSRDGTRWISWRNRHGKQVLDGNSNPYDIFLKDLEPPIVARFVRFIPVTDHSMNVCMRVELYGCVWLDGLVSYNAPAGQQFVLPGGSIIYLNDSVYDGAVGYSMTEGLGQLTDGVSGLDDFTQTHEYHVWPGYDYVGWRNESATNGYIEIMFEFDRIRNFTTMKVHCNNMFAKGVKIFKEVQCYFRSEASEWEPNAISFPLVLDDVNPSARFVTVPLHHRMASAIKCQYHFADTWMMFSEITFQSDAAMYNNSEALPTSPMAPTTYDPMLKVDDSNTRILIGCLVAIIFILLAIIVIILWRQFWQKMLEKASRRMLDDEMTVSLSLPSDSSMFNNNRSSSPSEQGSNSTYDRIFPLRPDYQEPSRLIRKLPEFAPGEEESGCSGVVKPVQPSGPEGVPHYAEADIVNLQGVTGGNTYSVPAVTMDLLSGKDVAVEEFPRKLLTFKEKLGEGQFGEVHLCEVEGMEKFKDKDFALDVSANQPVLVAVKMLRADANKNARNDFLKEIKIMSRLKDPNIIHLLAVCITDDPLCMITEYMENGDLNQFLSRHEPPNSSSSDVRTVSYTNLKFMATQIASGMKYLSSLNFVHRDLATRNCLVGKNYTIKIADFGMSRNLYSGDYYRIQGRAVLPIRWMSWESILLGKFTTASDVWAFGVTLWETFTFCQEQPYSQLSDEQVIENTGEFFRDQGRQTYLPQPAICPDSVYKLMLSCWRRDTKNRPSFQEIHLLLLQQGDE
measurement-name: IC50 (nM)
Give just the numeric value; nM need not be written.

Q) Give the reported IC50 for this molecule. Nc1ncnc2c1ncn2[C@@H]1O[C@H](COP(=O)(O)OP(=O)(O)C(Cl)(Cl)P(=O)(O)O)[C@@H](O)[C@H]1O
A) 47

Origin of measurements: paper PMC6022752
